These measurements were taken from patent US7402688B2.

# reported VDR affinity (relative binding affinity X=y/x); entries follow
molecular target: vitamin D receptor (VDR) (Bos taurus); construct: vitamin D receptor (VDR) derived from calf thymus was evaluated; purchased Yamasa Shoyu Co., Ltd. (Choshi, Chiba, Japan) Lot; No. 111931; host or cells: calf thymus (tissue preparation); assay: Binding assay for calf thymus vitamin D receptor (VDR); conditions: relative to 1α,25-dihydroxyvitamin D3 = 1; ratio of concentrations for 50% inhibition of [3H]-1α,25-dihydroxyvitamin D3 binding to calf thymus VDR
Sequence (Q28037 whole entry): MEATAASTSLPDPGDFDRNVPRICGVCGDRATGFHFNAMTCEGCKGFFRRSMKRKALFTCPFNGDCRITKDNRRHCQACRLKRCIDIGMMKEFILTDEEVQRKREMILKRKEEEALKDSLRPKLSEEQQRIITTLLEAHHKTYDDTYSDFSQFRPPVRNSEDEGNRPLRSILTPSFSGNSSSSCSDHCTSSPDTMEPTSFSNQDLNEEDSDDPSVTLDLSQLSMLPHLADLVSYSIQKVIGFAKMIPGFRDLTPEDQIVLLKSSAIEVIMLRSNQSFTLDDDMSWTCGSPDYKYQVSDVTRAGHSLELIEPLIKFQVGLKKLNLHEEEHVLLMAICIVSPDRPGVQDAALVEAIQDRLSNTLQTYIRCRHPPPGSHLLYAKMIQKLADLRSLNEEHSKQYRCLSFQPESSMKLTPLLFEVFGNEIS

Would you please look over these solved cases?
C[C@H](CCCC(C)(C)O)C1CCC2/C(=C/C=C3C[C@@H](O)C(C)(O)[C@H](O)C3)CCCC21C (stereo partly shown) [YI-3b] : 1/730
C[C@@H](CCCC(C)(C)O)C1CCC2/C(=C/C=C3C[C@@H](O)C4(CO4)[C@H](O)C3)CCCC21C (stereo partly drawn) [Compound 20-Epi-YI-1a] : 1/2
C[C@H](CCCC(C)(C)O)C1CCC2/C(=C/C=C3C[C@@H](O)C(C)(O)[C@H](O)C3)CCCC21C (stereo partly shown) [YI-3a] : 1/3

Record C[C@@H](CCCC(C)(C)O)C1CCC2/C(=C/C=C3C[C@@H](O)C(CCO)[C@H](O)C3)CCCC21C (stereo partly drawn) [Compound 20-Epi-YI-7a] . Reported VDR affinity (relative binding affinity X=y/x): 1

Record COCC1(O)[C@H](O)CC(=C/C=C2\CCCC3(C)C2CCC3[C@H](C)CCCC(C)(C)O)C[C@H]1O (stereo partly shown) [YI-5a] , field VDR affinity (relative binding affinity X=y/x): 1/26

// VDR affinity (relative binding affinity X=y/x) lookup, molecule = COCC1(O)[C@H](O)CC(=C/C=C2\CCCC3(C)C2CCC3[C@H](C)CCCC(C)(C)O)C[C@H]1O (stereo partly shown) [YI-5b] , result: 1/820

Form: molecule = C[C@H](CCCC(C)(C)O)C1CCC2/C(=C/C=C3C[C@@H](O)C4(CO4)[C@H](O)C3)CCCC21C (stereo partly shown) [YI-1a] ; VDR affinity (relative binding affinity X=y/x) = 1/23

Documented VDR affinity (relative binding affinity X=y/x) of C[C@@H](CCCC(C)(C)O)C1CCC2/C(=C/C=C3C[C@@H](O)C(=CCO)[C@H](O)C3)CCCC21C (stereo partly drawn) [Compound 20-Epi-YI-8b] : 1/50

Lab note: C[C@H](CCCC(C)(C)O)C1CCC2/C(=C/C=C3C[C@@H](O)C(O)(CF)[C@H](O)C3)CCCC21C (stereo partly shown) gave VDR affinity (relative binding affinity X=y/x) of 1/43

The reported value for C[C@@H](CCCC(C)(C)O)C1CCC2/C(=C/C=C3C[C@@H](O)C(CCO)[C@H](O)C3)CCCC21C (stereo partly drawn) [Compound 20-Epi-YI-7b] in terms of VDR affinity (relative binding affinity X=y/x) is 1/5

# VDR affinity (relative binding affinity X=y/x) of COCC1(O)[C@H](O)CC(=C/C=C2\CCCC3(C)C2CCC3[C@@H](C)CCCC(C)(C)O)C[C@H]1O (stereo partly drawn) [Compound 20-Epi-YI-5b] = 1/10

# molecule CCC1(O)[C@H](O)CC(=C/C=C2\CCCC3(C)C2CCC3[C@@H](C)CCCC(C)(C)O)C[C@H]1O (stereo partly drawn) [Compound 20-Epi-YI-4b] ; its VDR affinity (relative binding affinity X=y/x) = 1/1000

Reported VDR affinity (relative binding affinity X=y/x) for CCC1(O)[C@H](O)CC(=C/C=C2\CCCC3(C)C2CCC3[C@H](C)CCCC(C)(C)O)C[C@H]1O (stereo partly shown) [YI-4b] was 1/2000

Documented VDR affinity (relative binding affinity X=y/x) of CCC1(O)[C@H](O)CC(=C/C=C2\CCCC3(C)C2CCC3[C@H](C)CCCC(C)(C)O)C[C@H]1O (stereo partly shown) [YI-4a] : 1/50

Measured VDR affinity (relative binding affinity X=y/x) of C[C@@H](CCCC(C)(C)O)C1CCC2/C(=C/C=C3C[C@@H](O)C(O)(CF)[C@H](O)C3)CCCC21C (stereo partly drawn) [Compound 20-Epi-YI-2a] : 2

get_value(item= C[C@@H](CCCC(C)(C)O)C1CCC2/C(=C/C=C3C[C@@H](O)C4(CO4)[C@H](O)C3)CCCC21C (stereo partly drawn) [Compound 20-Epi-YI-1b] , readout=VDR affinity (relative binding affinity X=y/x)) returns 1/5
